# experimentSummary: Clearance in human liver microsomes
# Type: ADME, microsome
observedProperty: CLhep predicted

[[record]]
givensmiles = "C[C@H]1CC[C@@H](C(=O)NCc2cc(-c3ccc(C(F)(F)F)nc3)ncn2)N1S(=O)(=O)c1ccc(F)cc1"
observedproperty = "CLhep predicted"
result = "19 mL/min/kg"

[[record]]
givensmiles = "C[C@H]1[C@H](F)C[C@@H](C(=O)NCc2cc(-c3cnc(C(F)(F)F)nc3)ncn2)N1S(=O)(=O)c1ccc(F)cc1"
observedproperty = "CLhep predicted"
result = "11 mL/min/kg"

[[record]]
givensmiles = "C[C@H]1[C@H](F)C[C@@H](C(=O)NCc2cc(-c3cnc(C(F)(F)F)cn3)ncn2)N1S(=O)(=O)c1ccc(F)cc1"
observedproperty = "CLhep predicted"
result = "14 mL/min/kg"


[ask] Requested read-out: CLhep predicted. Entry: C[C@H]1[C@H](F)C[C@@H](C(=O)NCc2cc(-c3cnc(C(F)(F)F)nc3)nc(C3CC3)n2)N1S(=O)(=O)c1ccc(F)cc1
[reply] 10 mL/min/kg

[ask] Fill in: CLhep predicted of C[C@H]1[C@H](F)C[C@@H](C(=O)NCc2cc(-c3cnc(C(F)(F)F)nc3)ccn2)N1S(=O)(=O)c1ccc(F)cc1 is ___
[reply] 16 mL/min/kg
